Origin of measurements: paper PMC7045587

# ASSAY_DETAILS: activity at 30-90 °C
# RUN_CONDITIONS: glycan gained; control: wild type
QUANTITY: other: optimal temperature of activity

CTendo45: G63T (protein) parent chain: MHLSQLALPLLLAAGAHAQGAQGTGRTTRYWDCCKPSCAWPGKSNALQPVQTCNAQDQPLNDGGNTRSGCDSGGSAFMCSNQSPWALNETLSYGWAAVRIAGQSEFNWCCACYELTFTSGPVAGKKMIVQATNTGGDLGSNHFDIAIPGGGVGIFNACTQQYGAPPNGWGERYGGIRSRSECDSFPEALKAGCYWRFDWFLGADNPDVSFKQVACPAAITAKSKCVRQRDVIDQTPTGPEIVPTWTP | no change
CTendo45: R67S (protein) parent chain: MHLSQLALPLLLAAGAHAQGAQGTGRTTRYWDCCKPSCAWPGKSNALQPVQTCNAQDQPLNDGGNTRSGCDSGGSAFMCSNQSPWALNETLSYGWAAVRIAGQSEFNWCCACYELTFTSGPVAGKKMIVQATNTGGDLGSNHFDIAIPGGGVGIFNACTQQYGAPPNGWGERYGGIRSRSECDSFPEALKAGCYWRFDWFLGADNPDVSFKQVACPAAITAKSKCVRQRDVIDQTPTGPEIVPTWTP | no change
CTendo45: L47T (protein) parent chain: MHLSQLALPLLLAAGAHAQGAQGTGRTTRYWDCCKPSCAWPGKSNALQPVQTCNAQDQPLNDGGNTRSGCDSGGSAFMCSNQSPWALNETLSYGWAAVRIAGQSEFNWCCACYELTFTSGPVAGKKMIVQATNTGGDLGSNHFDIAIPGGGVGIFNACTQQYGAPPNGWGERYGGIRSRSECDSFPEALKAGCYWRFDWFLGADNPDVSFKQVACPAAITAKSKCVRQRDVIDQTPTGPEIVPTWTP | no change
CTendo45: F143S (protein) parent chain: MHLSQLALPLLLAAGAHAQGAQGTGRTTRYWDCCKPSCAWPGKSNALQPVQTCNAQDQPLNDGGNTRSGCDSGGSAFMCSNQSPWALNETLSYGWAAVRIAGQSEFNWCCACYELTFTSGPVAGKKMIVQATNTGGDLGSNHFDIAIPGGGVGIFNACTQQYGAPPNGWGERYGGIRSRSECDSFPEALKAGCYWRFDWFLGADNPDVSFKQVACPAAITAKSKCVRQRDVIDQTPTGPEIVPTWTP | no change
